I'd appreciate it if you could supply kon values for the items below.
- testTarget: T1, C1r-CCP2-SP, recombinant autoactivated domain truncation of human C1r (human, UniProt P00736 375-703)
- T1 sequence: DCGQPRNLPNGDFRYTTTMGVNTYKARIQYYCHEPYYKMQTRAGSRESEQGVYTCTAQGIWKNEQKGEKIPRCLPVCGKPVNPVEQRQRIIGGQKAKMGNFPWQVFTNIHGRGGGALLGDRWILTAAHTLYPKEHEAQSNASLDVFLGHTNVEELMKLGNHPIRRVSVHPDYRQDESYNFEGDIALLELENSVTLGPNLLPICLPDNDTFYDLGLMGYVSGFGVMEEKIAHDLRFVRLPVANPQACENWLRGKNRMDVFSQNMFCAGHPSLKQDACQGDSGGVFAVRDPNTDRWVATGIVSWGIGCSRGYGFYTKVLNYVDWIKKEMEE
- testName: SPR
Numbers only, in M⁻¹ s⁻¹.

binder	outputUnit	kon
BBK32-C K327A-T331A (domain or fragment, B. burgdorferi B31, UniProt O50835 206-348, looked up) SNRYQSYLEGVKYNVDSAIQTITKIYNTYTLFSTKLTQMYSTRLDNFAKAKAKEEAAKFTKEDLEKNFKTLLNYIQVSVKTAANFVYINDTHAKRKLENIEAEIKTLIAKIKEQSNLYEAYAAIVASILLMRDSLKEVQGIID	M⁻¹ s⁻¹	37000
BBK32-C N251A (domain or fragment, B. burgdorferi B31, UniProt O50835 206-348, looked up) SNRYQSYLEGVKYNVDSAIQTITKIYNTYTLFSTKLTQMYSTRLDAFAKAKAKEEAAKFTKEDLEKNFKTLLNYIQVSVKTAANFVYINDTHAKRKLENIEAEIKTLIAKIKEQSNLYEAYKAIVTSILLMRDSLKEVQGIID	M⁻¹ s⁻¹	180000
BBK32-C T331A (domain or fragment, B. burgdorferi B31, UniProt O50835 206-348, looked up) SNRYQSYLEGVKYNVDSAIQTITKIYNTYTLFSTKLTQMYSTRLDNFAKAKAKEEAAKFTKEDLEKNFKTLLNYIQVSVKTAANFVYINDTHAKRKLENIEAEIKTLIAKIKEQSNLYEAYKAIVASILLMRDSLKEVQGIID	M⁻¹ s⁻¹	140000

# input for lookup
// query // kon lookup, key: BBK32-C R248A (domain or fragment, B. burgdorferi B31, UniProt O50835 206-348, looked up) SNRYQSYLEGVKYNVDSAIQTITKIYNTYTLFSTKLTQMYSTALDNFAKAKAKEEAAKFTKEDLEKNFKTLLNYIQVSVKTAANFVYINDTHAKRKLENIEAEIKTLIAKIKEQSNLYEAYKAIVTSILLMRDSLKEVQGIID
// result 220000
